meta.source: PubChem BioAssay (EPA / NIEHS)

# assay-protocol: ATG_PXRE_CIS: Attagene CIS-FACTORIAL HepG2 Assay for human Pregnane X Receptor Element (PXRE) (AID 2282957)
# experimental-setup: HepG2 Attagene CIS-FACTORIAL PXRE reporter, mRNA; actives raise or lower the signal
# Procedure: ATG_CIS is a cell-based, multiplexed-readout assay that uses HepG2, a human liver cell line, with measurements taken at 24 hours after chemical dosing in a 24-well plate.ATG_PXRE_CIS is one of 52 assay component(s) measured or calculated from the ATG_CIS assay. […] This assay endpoint, ATG_PXRE_CIS, was analyzed with bidirectional fitting relative to DMSO as the negative control and baseline of activity. […]
Activity calls are given as the source filed them. How the source made its calls: active means hit-call score of the fitted dose curve at least 0.9, where 1 is the maximum; inactive means score below 0.9.
quantity: AC50

// known answers, use as guide
Nc1ccc(N=Nc2ccccc2)cc1: 57.7 µM (active)
CC(C)(C)OOC(C)(C)CCC(C)(C)OOC(C)(C)C: 8.34 µM (active)
CCC12COCN1COC2: inactive
c1ccc(NNc2ccccc2)cc1: inactive
OCCOCCO: inactive

Quick note, AC50 for N#CC(Br)(Br)C(N)=O landed at 100 µM (active)

Quick note, AC50 for CC(O)CCO (configuration not stated) landed at 27 µM (active)

Quick note, AC50 for Nc1ccc(Cl)cc1N landed at 26.1 µM (active)

Quick note, AC50 for Clc1ccc(C(c2ccc(Cl)cc2)C(Cl)(Cl)Cl)cc1 landed at 4.13 µM (active)

Quick note, AC50 for ClC1=C(Cl)C2(Cl)C3C(Cl)C=CC3C1(Cl)C2(Cl)Cl (configuration not stated) landed at 7.47 µM (active)

Quick note, AC50 for O=P(OCCCl)(OCCCl)OCCCl landed at 43.6 µM (active)

* * *

# system: Peroxisome proliferator-activated receptor gamma (Homo sapiens)
# assay-protocol: NVS_NR_hPPARg: NovaScreen (NVS) Nuclear Receptor Binding Assay for human Peroxisome Proliferator-activated Receptor gamma (PPARg) (AID 2283370)
Records with an inconclusive call do not appear. Activity calls are given as the source filed them. Rule for the calls: active = hit-call score of the fitted dose curve at least 0.9, where 1 is the maximum; inconclusive = response in the unintended direction; inactive = score below 0.9.
quantity: AC50

// known answers, use as guide
Cn1cc(-c2ccccc2)c(=O)c(-c2cccc(C(F)(F)F)c2)c1: inactive
CS(=O)(=O)NC(=O)c1cc(Oc2ccc(C(F)(F)F)cc2Cl)ccc1[N+](=O)[O-]: inactive
Cc1cc(N=Nc2ccccc2C)ccc1N: inactive
CN(C)c1ccc(C(=O)c2ccc(N(C)C)cc2)cc1: 25000 nM (active)
c1ccc(N=Nc2ccccc2)cc1: inactive
CCCCOC(=O)c1ccccc1C(=O)OCc1ccccc1: inactive
CCOC(=O)[C@]1(c2ccccc2)Oc2ccccc2[C@@H]1N: inactive
Nc1ccc(N=Nc2ccccc2)cc1: inactive

Quick note, AC50 for Cc1cccc(N)c1N landed at 2.29 nM (active)

Quick note, AC50 for CCNS(=O)(=O)C(F)(F)C(F)(F)C(F)(F)C(F)(F)C(F)(F)C(F)(F)C(F)(F)C(F)(F)F landed at inactive

Quick note, AC50 for Nc1ccc(Oc2ccc(N)cc2)cc1 landed at inactive

Quick note, AC50 for CC(C)COC(=O)c1ccccc1C(=O)OCC(C)C landed at inactive

Quick note, AC50 for O=C(Oc1ccc(Br)cc1)N1CCN2CCC1CC2 landed at inactive

Quick note, AC50 for CCCCCCCCn1sccc1=O landed at 693 nM (active)

* * *

# assay-protocol: APR_HepG2_CellLoss_72hr: Apredica 72-hour HepG2 Assay for Cell Loss (AID 2282915)
# experimental-setup: high-content imaging
The source made the active and inactive calls. The calls were made as follows: active = hit-call score of the fitted dose curve at least 0.9, where 1 is the maximum; inactive = score below 0.9.
quantity: AC50

// known answers, use as guide
Clc1ccc(C(c2ccc(Cl)cc2)C(Cl)Cl)cc1: 93.8 µM (active)
O=C(Oc1ccc(Br)cc1)N1CCN2CCC1CC2: 80.8 µM (active)
c1ccc(C2CO2)cc1 (centres undefined): inactive
CCCSC(=O)N(CCC)CCC: inactive
Oc1ccccc1Cl: inactive
O=C1CCCO1: inactive
CN(C)[C@@H]1C(=O)C(C(N)=O)=C(O)[C@@]2(O)C(=O)C3=C(O)c4c(O)cccc4[C@@](C)(O)[C@H]3C[C@@H]12: inactive
Clc1ccc(Cl)c(Cl)c1: inactive
OCCCBr: inactive
ClC1=C(Cl)[C@]2(Cl)[C@H]3[C@H]([C@@H]4C=C[C@H]3C4)[C@@]1(Cl)C2(Cl)Cl: 36.7 µM (active)

Quick note, AC50 for O=Cc1ccco1 landed at inactive

Quick note, AC50 for CCOc1cccc(C2(N3CCN(c4ccccc4)CC3)CCC(C)CC2)c1 (centres undefined) landed at inactive

Quick note, AC50 for CCN(CC)CCO landed at inactive

Quick note, AC50 for [As]#[In] landed at inactive

* * *

# Read-out: Monokine induced gamma interferon (MIG), CXCL9 (gene 4283)
# assay-protocol: BSK_CASM3C_MIG: BioMAP Diversity Plus: CASM3C Assay for Monokine induced gamma interferon (MIG) Biomarker Activity (AID 2283048);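 further: MIG protein level measured by ELISA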
# experimental-setup: primary human coronary artery smooth muscle cells; actives raise or lower the signal
Active and inactive are the calls of the source. How the source made its calls: active means hit-call score of the fitted dose curve at least 0.9, where 1 is the maximum; inactive means score below 0.9.
Response enum: active, inactive

Dear colleague, could you share the recorded outcome for C[C@]12C=CC3=C4CCC(=O)C=C4CC[C@H]3[C@@H]1CC[C@@H]2O when you have a moment?
inactive

Dear colleague, could you share the recorded outcome for OCCCBr when you have a moment?
inactive

Dear colleague, could you share the recorded outcome for O=[N+]([O-])c1ccc(Oc2ccc(Cl)cc2Cl)cc1 when you have a moment?
inactive

Dear colleague, could you share the recorded outcome for [O-][Cl+]O when you have a moment?
inactive

Dear colleague, could you share the recorded outcome for CCN(CC)N=O when you have a moment?
inactive

Dear colleague, could you share the recorded outcome for Brc1ccc(Oc2ccccc2)cc1 when you have a moment?
inactive

Dear colleague, could you share the recorded outcome for C=CCc1ccc2c(c1)OCO2 when you have a moment?
inactive

Dear colleague, could you share the recorded outcome for COC(=O)Nc1nc2ccccc2[nH]1 when you have a moment?
inactive

Dear colleague, could you share the recorded outcome for Nc1ccc(Cc2ccc(N)cc2)cc1 when you have a moment?
inactive

Dear colleague, could you share the recorded outcome for OCCOCCO when you have a moment?
inactive

Dear colleague, could you share the recorded outcome for c1ccc(NNc2ccccc2)cc1 when you have a moment?
inactive

Dear colleague, could you share the recorded outcome for c1ccc(C2CO2)cc1 (stereo unspecified) when you have a moment?
inactive

Dear colleague, could you share the recorded outcome for [Cl-].[Cl-].[Hg+2] when you have a moment?
active

Dear colleague, could you share the recorded outcome for Oc1ccccc1Cl when you have a moment?
inactive

Dear colleague, could you share the recorded outcome for CC(C)(O)c1cnn2c(-c3ccc(F)c(-c4c(F)cccc4C#N)c3)cnc2n1 when you have a moment?
inactive

Dear colleague, could you share the recorded outcome for Nc1cc(Cl)cc(C(=O)O)c1Cl when you have a moment?
inactive

Dear colleague, could you share the recorded outcome for CC(C)N(Cc1ccccc1)C(=O)C(C)(C)C when you have a moment?
inactive

Dear colleague, could you share the recorded outcome for O=C(Nc1ccccc1)c1ccccc1I when you have a moment?
inactive

Dear colleague, could you share the recorded outcome for Clc1ccccc1Cl when you have a moment?
inactive

Dear colleague, could you share the recorded outcome for ClCCOCCCl when you have a moment?
inactive

Dear colleague, could you share the recorded outcome for c1ccc2c(c1)oc1ccccc12 when you have a moment?
inactive

Dear colleague, could you share the recorded outcome for C[N+](C)(C)CC1CO1 (stereo unspecified) when you have a moment?
inactive

Dear colleague, could you share the recorded outcome for Nc1ccc(Cl)cc1N when you have a moment?
inactive

Dear colleague, could you share the recorded outcome for O=C1CCCO1 when you have a moment?
inactive

Dear colleague, could you share the recorded outcome for CCOc1cccc(C2(N3CCN(c4ccccc4)CC3)CCC(C)CC2)c1 (stereo unspecified) when you have a moment?
inactive

Dear colleague, could you share the recorded outcome for O=C(N[C@H](c1ccccc1)[C@@H]1CN2CCC1CC2)c1c(Cl)ccc(C(F)(F)F)c1Cl when you have a moment?
inactive

* * *

# system: AR (gene 367) (UniProt P10275)
# Sequence (P10275 whole entry, looked up): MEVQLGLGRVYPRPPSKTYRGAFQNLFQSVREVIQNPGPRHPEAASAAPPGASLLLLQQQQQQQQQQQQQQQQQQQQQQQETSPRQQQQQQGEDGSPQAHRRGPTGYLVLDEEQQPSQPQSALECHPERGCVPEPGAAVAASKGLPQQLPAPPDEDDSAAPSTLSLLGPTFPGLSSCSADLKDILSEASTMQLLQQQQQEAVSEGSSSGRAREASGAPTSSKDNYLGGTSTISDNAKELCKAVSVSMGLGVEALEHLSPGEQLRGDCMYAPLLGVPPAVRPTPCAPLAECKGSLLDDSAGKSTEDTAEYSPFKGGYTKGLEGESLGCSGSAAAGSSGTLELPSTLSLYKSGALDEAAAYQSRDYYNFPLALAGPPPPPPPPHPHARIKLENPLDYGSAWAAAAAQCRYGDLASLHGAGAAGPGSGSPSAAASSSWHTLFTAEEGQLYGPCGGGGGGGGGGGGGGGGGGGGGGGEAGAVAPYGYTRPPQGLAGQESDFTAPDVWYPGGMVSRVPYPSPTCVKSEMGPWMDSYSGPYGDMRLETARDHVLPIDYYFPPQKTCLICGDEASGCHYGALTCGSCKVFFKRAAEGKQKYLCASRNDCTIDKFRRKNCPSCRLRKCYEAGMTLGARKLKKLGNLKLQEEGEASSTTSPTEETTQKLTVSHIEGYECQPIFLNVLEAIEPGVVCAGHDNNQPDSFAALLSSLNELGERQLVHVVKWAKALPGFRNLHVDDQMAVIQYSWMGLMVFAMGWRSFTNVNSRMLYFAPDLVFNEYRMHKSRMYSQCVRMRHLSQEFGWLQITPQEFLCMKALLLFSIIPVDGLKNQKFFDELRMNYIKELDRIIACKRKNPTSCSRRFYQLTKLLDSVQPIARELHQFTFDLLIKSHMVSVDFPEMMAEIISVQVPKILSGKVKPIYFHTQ
# assay-protocol: ACEA_AR_agonist_80hr: ACEA Biosciences xCELLigence Real-Time Cell Analysis on Androgen Receptor Agonism for Proliferation (AID 2283783);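 further: hits increase impedance growth signal above DMSO baseline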
Results filed as inconclusive are left out. Active and inactive are the calls of the source. Rule for the calls: active = hit-call score of the fitted dose curve at least 0.9, where 1 is the maximum; inconclusive = response in the unintended direction; inactive = score below 0.9.
quantity: AC50

// known answers, use as guide
C[C@]12C=CC3=C4CCC(=O)C=C4CC[C@H]3[C@@H]1CC[C@@H]2O: 0.000293 µM (active)
COC(=O)Nc1nc2ccccc2[nH]1: inactive
CCNS(=O)(=O)C(F)(F)C(F)(F)C(F)(F)C(F)(F)C(F)(F)C(F)(F)C(F)(F)C(F)(F)F: 48.2 µM (active)
Nc1ccc(Cl)cc1N: inactive

I looked up CCCCC(CC)COC(=O)c1ccc(C(=O)OCC(CC)CCCC)c(C(=O)OCC(CC)CCCC)c1 (stereo unspecified) and its AC50 for AR (gene 367) (UniProt P10275) was inactive

I looked up O=[N+]([O-])C(Br)(CO)CO and its AC50 for AR (gene 367) (UniProt P10275) was inactive

* * *

# assay-protocol: CCTE_Harrill_HTTr_Apoptosis_MCF7: CCTE's 6-hour Apoptosis Assessment for the High-Throughput Transcriptomics (HTTr) Platform, in MCF-7 cells cultured in DMEM + 10% fetal bovine serum, Harrill Lab (AID 2284011)
The source made the active and inactive calls. Rule for the calls: active = hit-call score of the fitted dose curve at least 0.9, where 1 is the maximum; inactive = score below 0.9.
Response enum: active, inactive

Dear colleague, could you share the recorded outcome for CC(C)(C)OOC(C)(C)CCC(C)(C)OOC(C)(C)C when you have a moment?
inactive

Dear colleague, could you share the recorded outcome for ClC1=C(Cl)[C@]2(Cl)[C@H]3[C@H]([C@@H]4C=C[C@H]3C4)[C@@]1(Cl)C2(Cl)Cl when you have a moment?
inactive

Dear colleague, could you share the recorded outcome for Cc1cccc(N)c1N when you have a moment?
inactive

Dear colleague, could you share the recorded outcome for Nc1ccc([N+](=O)[O-])cc1 when you have a moment?
inactive

Dear colleague, could you share the recorded outcome for CC(C)COC(=O)c1ccccc1C(=O)OCC(C)C when you have a moment?
inactive

Dear colleague, could you share the recorded outcome for O=C(Oc1ccc(Br)cc1)N1CCN2CCC1CC2 when you have a moment?
inactive

Dear colleague, could you share the recorded outcome for Clc1ccccc1Cl when you have a moment?
inactive

Dear colleague, could you share the recorded outcome for COc1cc(C=O)cc2c1[C@H](COC(N)=O)[C@]1(OC(C)=O)ON2C[C@H]2[C@@H]1N2C(C)=O when you have a moment?
inactive

Dear colleague, could you share the recorded outcome for CCOc1cccc(C2(N3CCN(c4ccccc4)CC3)CCC(C)CC2)c1 (stereo not drawn) when you have a moment?
inactive

Dear colleague, could you share the recorded outcome for N#CC(Br)Br when you have a moment?
inactive

Dear colleague, could you share the recorded outcome for [O-][Cl+]O when you have a moment?
inactive

Dear colleague, could you share the recorded outcome for CN(C)c1ccccc1 when you have a moment?
inactive

Dear colleague, could you share the recorded outcome for Cc1ccc(N)c(N)c1 when you have a moment?
inactive

Dear colleague, could you share the recorded outcome for Clc1ccc(Cl)c(Cl)c1 when you have a moment?
inactive

Dear colleague, could you share the recorded outcome for CCOC(=O)[C@]1(c2ccccc2)Oc2ccccc2[C@@H]1N when you have a moment?
inactive

Dear colleague, could you share the recorded outcome for COC(=O)c1ccccc1N when you have a moment?
inactive

Dear colleague, could you share the recorded outcome for CCC(C)c1ccc(O)cc1 (stereo not drawn) when you have a moment?
inactive

Dear colleague, could you share the recorded outcome for C1=Cc2cccc3cccc1c23 when you have a moment?
inactive

Dear colleague, could you share the recorded outcome for CC(C)(O)c1cnn2c(-c3ccc(F)c(-c4c(F)cccc4C#N)c3)cnc2n1 when you have a moment?
inactive

Dear colleague, could you share the recorded outcome for Nc1ccc(Oc2ccc(N)cc2)cc1 when you have a moment?
inactive

Dear colleague, could you share the recorded outcome for CCC[CH2][Sn]([Cl])([CH2]CCC)[CH2]CCC when you have a moment?
active

Dear colleague, could you share the recorded outcome for O=C(O)C1C2CCC(O2)C1C(=O)O (stereo not drawn) when you have a moment?
inactive

Dear colleague, could you share the recorded outcome for Oc1ccc2ccc3cccc4ccc1c2c34 when you have a moment?
active

Dear colleague, could you share the recorded outcome for OCCCl when you have a moment?
inactive

Dear colleague, could you share the recorded outcome for Nc1ccc(N=Nc2ccccc2)cc1 when you have a moment?
inactive

Dear colleague, could you share the recorded outcome for CC(C)(C)C(O)(CCc1ccc(Cl)cc1)Cn1cncn1 (stereo not drawn) when you have a moment?
inactive

Dear colleague, could you share the recorded outcome for O=[N+]([O-])C(Br)(CO)CO when you have a moment?
inactive

Dear colleague, could you share the recorded outcome for N#CC(Br)(Br)C(N)=O when you have a moment?
inactive
